Biological target: Human P2X7 (hP2X7) receptor (Homo sapiens, UniProt Q99572)
Construct: myc-His (from the pcDNA3.1/myc-HisA vector); expressed in transfected cells
Sequence (Q99572 1-595): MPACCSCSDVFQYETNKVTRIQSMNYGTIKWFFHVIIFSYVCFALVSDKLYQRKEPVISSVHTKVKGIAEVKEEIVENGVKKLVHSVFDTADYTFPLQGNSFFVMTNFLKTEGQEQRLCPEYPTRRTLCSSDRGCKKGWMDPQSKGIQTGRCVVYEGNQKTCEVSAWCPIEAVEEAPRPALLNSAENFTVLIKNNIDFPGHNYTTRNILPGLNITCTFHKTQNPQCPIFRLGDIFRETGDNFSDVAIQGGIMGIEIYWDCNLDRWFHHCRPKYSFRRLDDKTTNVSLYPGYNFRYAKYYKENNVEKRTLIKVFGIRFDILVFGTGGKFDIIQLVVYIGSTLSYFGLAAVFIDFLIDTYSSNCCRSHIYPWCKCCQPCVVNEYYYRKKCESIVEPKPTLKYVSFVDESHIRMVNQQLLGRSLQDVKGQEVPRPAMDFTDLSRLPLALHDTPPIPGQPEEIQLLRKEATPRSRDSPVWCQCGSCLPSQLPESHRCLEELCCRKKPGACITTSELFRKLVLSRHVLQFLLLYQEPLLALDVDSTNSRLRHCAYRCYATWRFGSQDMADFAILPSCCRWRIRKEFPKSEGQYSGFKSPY
Experiment: Dye assay: BzATP-induced Yo-Pro-1 uptake in HEK293 cells stably expressing hP2X7
Type: cell-based
Settings: BzATP (0.1 mM)-induced Yo-Pro-1 uptake, compounds 30 min pre-treatment, 90 min incubation
The reader will find reported pIC50 values listed item by item below.
Note on units: pIC50 is unitless, being -log10 of a concentration expressed in mol/L.

{"Compound": "C[C@@H]1[C@H]2C[C@@H](C[C@H]1Nc1cnn(CC(=O)NCc3ccncc3N(C)C)c(=O)c1Cl)C2(C)C [compound 277]", "pIC50": 8.43}
{"Compound": "C[C@@H]1[C@H]2C[C@@H](C[C@H]1Nc1cnn(-c3cccc(C(=O)NCc4ccncc4)c3)c(=O)c1Br)C2(C)C [Synthetic Example 162]", "pIC50": 7.29}
{"Compound": "C[C@@H]1[C@H]2C[C@@H](C[C@H]1Nc1cnn(CC(=O)NCc3cnccn3)c(=O)c1Br)C2(C)C [compound 14]", "pIC50": 7.68}

The compound listed as CCC(NC(=O)Cn1ncc(N[C@@H]2C[C@@H]3C[C@@H](C3(C)C)[C@]2(C)O)c(Br)c1=O)c1ccncc1 (some centres unmarked) [compound 358] has a reported pIC50 of 8.00

pIC50 in this record for COc1cnccc1CNC(=O)Cn1ncc(N[C@@H]2C[C@@H]3C[C@H]([C@H]2C)C3(C)C)c(Cl)c1=O [compound 294] : 8.27

Form field pIC50, entry CCC(NC(=O)Cn1ncc(N[C@@H]2C[C@@H]3C[C@H]([C@H]2C)C3(C)C)c(Br)c1=O)c1ccncc1 (some centres unmarked) [compound 171] : 8.37

---

Target: Human P2X7 (hP2X7) receptor (Homo sapiens, UniProt Q99572)
Construct: myc-His (from the pcDNA3.1/myc-HisA vector); expressed in transfected cells
Assay: Dye assay: BzATP-induced Yo-Pro-1 uptake in HEK293 cells stably expressing hP2X7
Format: cell-based
Conditions: BzATP (0.1 mM)-induced Yo-Pro-1 uptake, compounds 30 min pre-treatment, 90 min incubation
Here, each record is paired with measured pIC50 data.
// scale note: pIC50 = -log10(conc_M); give the bare number

The examples below pair each entry with its known result.
{"Compound": "C[C@@H]1[C@H]2C[C@@H](C[C@H]1Nc1cnn(CC(=O)Nc3ccc4c(c3)C(=O)N(C)C4=O)c(=O)c1Br)C2(C)C [compound 88]", "pIC50": 7.36}
{"Compound": "Cc1cnccc1CNC(=O)Cn1ncc(N[C@@H]2C[C@@H]3C[C@H]([C@H]2C)C3(C)C)c(Br)c1=O [compound 170]", "pIC50": 8.51}
{"Compound": "O=C(Cn1ncc(NC2C3CC4CC(C3)CC2C4)c(Br)c1=O)NCc1ccncc1 (stereo not drawn) [compound 74]", "pIC50": 7.66}
{"Compound": "CC(NC(=O)Cn1ncc(N[C@@H]2C[C@@H]3C[C@@H](C3(C)C)[C@]2(C)O)c(Cl)c1=O)c1ccnnc1 (stereo partly drawn) [compound 364]", "pIC50": 8.47}
{"Compound": "C[C@@H]1[C@H]2C[C@@H](C[C@H]1Nc1cnn(CC(=O)Nc3nc(-c4ccncc4)cs3)c(=O)c1Cl)C2(C)C [compound 226]", "pIC50": 7.08}
{"Compound": "C[C@@H]1[C@H]2C[C@@H](C[C@H]1Nc1cnn(CC(=O)NCc3ccno3)c(=O)c1Br)C2(C)C [compound 127]", "pIC50": 7.72}
{"Compound": "O=C(Cn1ncc(NC2CCCCCCC2)c(Br)c1=O)NCc1ccncc1 [compound 321]", "pIC50": 7.42}
{"Compound": "C[C@@H]1[C@H]2C[C@@H](C[C@H]1Nc1cnn(CC(=O)NCc3ccc(C(F)(F)F)c(F)c3)c(=O)c1Br)C2(C)C [compound 183]", "pIC50": 6.64}
{"Compound": "COc1cc(OC)nc(Cn2ncc(N[C@@H]3C[C@@H]4C[C@H]([C@H]3C)C4(C)C)c(Br)c2=O)n1 [compound 89]", "pIC50": 7.46}
{"Compound": "C[C@@H]1[C@H]2C[C@@H](C[C@H]1Nc1cnn(CC(=O)NCc3cccnc3)c(=O)c1Br)C2(C)C [compound 12]", "pIC50": 7.70}

Given item Cc1cnccc1CNC(=O)Cn1ncc(N[C@@H]2C[C@@H]3C[C@@H](C3(C)C)[C@]2(C)O)c(Cl)c1=O [compound 361] , the value recorded as its pIC50 is 7.74

// pIC50 lookup, compound = C[C@@H]1[C@H]2C[C@@H](C[C@H]1Nc1cnn(CC(=O)NC(c3ccccc3)c3ccncc3)c(=O)c1Br)C2(C)C (stereo partly drawn) [compound 169] , result: 6.52

Record summary for C[C@@H]1[C@H]2C[C@@H](C[C@H]1Nc1cnn(CC(=O)NC[C@H]3CCCN3C(=O)OC(C)(C)C)c(=O)c1Br)C2(C)C [compound 201] : reported pIC50 = 7.05

pIC50 for C[C@@H]1[C@H]2C[C@@H](C[C@H]1Nc1cnn(CC(=O)NCc3ccncc3)c(=O)c1C(=O)O)C2(C)C [Synthetic Example 406] is 7.40

Field pIC50 (entry CN(C)c1cnccc1CNC(=O)Cn1ncc(NC2C3CCCC2CCC3)c(Cl)c1=O (stereo not drawn) [compound 373] ) reads 8.55

// field: pIC50; key: CCC(NC(=O)Cn1ncc(N[C@@H]2C[C@@H]3C[C@H]([C@H]2C)C3(C)C)c(Cl)c1=O)c1ccnnc1 (stereo partly drawn) [compound 288] ; value = 8.52

Looking up C[C@@H]1[C@H]2C[C@@H](C[C@H]1Nc1cnn(CC(=O)NCc3cscn3)c(=O)c1Br)C2(C)C [compound 106] , I found its pIC50 recorded as 7.36

Looking up C[C@@H]1[C@H]2C[C@@H](C[C@H]1Nc1cnn(CC(=O)NC(CC(N)=O)c3ccncc3)c(=O)c1Br)C2(C)C (stereo partly drawn) [Synthetic Example 428] , I found its pIC50 recorded as 7.57
